Test system: YANK1;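 also: KINOMEscan kinase panel screen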
Construct: gene STK32A
protocolConditions: concentration: 1 μM, replicates: in singlicate; n = 1
readoutKind: %Inh (%)
Write the answer as a number in %, unit excluded.

Worked cases, answers included:
Cc1cccc(-c2nc(-c3ccc(S(C)(=O)=O)cc3)sc2-c2ccnc(NCCc3ccccc3)c2)c1
0
COc1ccccc1CNC(=O)c1cc(C(=O)c2ccccc2C)c[nH]1 [GSK364507]
10
COc1cccc(-c2cc(-c3c[nH]nc3-c3ccccn3)ccn2)c1 [GW680338]
2
CCCc1ccc(S(=O)(=O)NC2CCN(c3ccnc(Nc4ccc(F)cc4)n3)C2)cc1 (stereo not drawn) [GSK1379715]
18
O=C(Nc1ccc2c(c1)OCO2)NC1CCN(c2ccnc(Nc3ccc(F)cc3)n2)C1 (stereo not drawn) [GSK1379724]
9
Clc1cc(Cl)cc(Nc2ccnc(Nc3cc(Cl)cc(Cl)c3)n2)c1 [GSK175726]
0
CC(=O)Nc1nc2cnc(Nc3cc(NC(=O)c4cccc(CCC#N)c4)ccc3C)nc2s1
15
Cc1cc(NCC(c2ccccc2)c2ccccc2)nc(NCc2ccc(C(F)(F)F)cc2)n1 [GW497681]
0

Would you mind telling me what %Inh value was observed for `Cn1ccc2ncnc(Oc3ccc(Nc4nc5ccccc5[nH]4)cc3)c21` ?
0
